# Measured Target: FGFR3 (UniProt P22607)
# Sequence (P22607 whole entry, looked up): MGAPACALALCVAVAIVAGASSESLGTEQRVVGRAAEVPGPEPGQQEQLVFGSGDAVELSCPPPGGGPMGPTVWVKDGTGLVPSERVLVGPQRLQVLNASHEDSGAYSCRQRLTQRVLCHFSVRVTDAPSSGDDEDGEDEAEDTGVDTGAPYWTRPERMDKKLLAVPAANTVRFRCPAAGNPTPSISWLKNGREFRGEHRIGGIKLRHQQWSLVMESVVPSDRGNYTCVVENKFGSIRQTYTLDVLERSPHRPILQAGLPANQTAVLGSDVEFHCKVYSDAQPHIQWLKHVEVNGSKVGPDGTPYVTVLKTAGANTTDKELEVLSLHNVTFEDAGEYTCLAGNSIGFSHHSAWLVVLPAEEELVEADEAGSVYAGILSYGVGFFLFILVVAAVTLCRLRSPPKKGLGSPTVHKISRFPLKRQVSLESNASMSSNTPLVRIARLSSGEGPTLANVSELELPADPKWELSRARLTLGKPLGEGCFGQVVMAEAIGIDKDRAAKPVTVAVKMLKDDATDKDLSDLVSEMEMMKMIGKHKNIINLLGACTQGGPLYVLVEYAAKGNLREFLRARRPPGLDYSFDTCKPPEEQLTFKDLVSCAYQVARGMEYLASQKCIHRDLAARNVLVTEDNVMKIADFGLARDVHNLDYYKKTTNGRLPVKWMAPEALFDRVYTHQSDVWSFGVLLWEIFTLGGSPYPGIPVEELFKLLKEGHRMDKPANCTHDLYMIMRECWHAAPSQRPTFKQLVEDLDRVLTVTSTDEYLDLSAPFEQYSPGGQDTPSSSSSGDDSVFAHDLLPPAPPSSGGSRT
# Assay Explanation: phosphorylation enrichment, bacterial display (enrichment ratio); higher = better substrate or ligand; peptides without Tyr show the background;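 also: 11-residue human phosphosite peptides and single-mutation variants displayed on the E. coli surface, counted by deep sequencing, each peptide's frequency after selection divided by its frequency in the unselected input library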;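 also: frequency after pTyr selection over input frequency; kinase dosed for 20-30% of maximal phosphorylation in three min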
Listed next: entries and their corresponding phosphorylation enrichment.
When you answer, write just the number.

Some solved cases for reference:
ARVANYHRDGP [CAT_Y386_Q387H]
0.394
YPLELYERVRM [PRKCG_Y312]
0.622

Inquiry: Requested read-out: phosphorylation enrichment. Entry: SGDITYGQFAQ [PLCG1_Y210]
Reply text: 0.422

Inquiry: Follow-up entry: KDHPDYEYQPR [SOX9_Y172_K173E]
Reply text: 0.771

Inquiry: Lookup HLDRSYSFSFS [PEAR1_Y890_R885H_YF]
Reply text: 0.897

Inquiry: What would you report for DVLEFCNSKKT [PAK1_Y131_Y131C] ?
Reply text: 0.581

Inquiry: One more sequence: RQQQDYWLMDV [ANPEP_Y600_I603M]
Reply text: 13.1

====

# Measured Target: MERTK (UniProt Q12866)
# Sequence (Q12866 whole entry, looked up): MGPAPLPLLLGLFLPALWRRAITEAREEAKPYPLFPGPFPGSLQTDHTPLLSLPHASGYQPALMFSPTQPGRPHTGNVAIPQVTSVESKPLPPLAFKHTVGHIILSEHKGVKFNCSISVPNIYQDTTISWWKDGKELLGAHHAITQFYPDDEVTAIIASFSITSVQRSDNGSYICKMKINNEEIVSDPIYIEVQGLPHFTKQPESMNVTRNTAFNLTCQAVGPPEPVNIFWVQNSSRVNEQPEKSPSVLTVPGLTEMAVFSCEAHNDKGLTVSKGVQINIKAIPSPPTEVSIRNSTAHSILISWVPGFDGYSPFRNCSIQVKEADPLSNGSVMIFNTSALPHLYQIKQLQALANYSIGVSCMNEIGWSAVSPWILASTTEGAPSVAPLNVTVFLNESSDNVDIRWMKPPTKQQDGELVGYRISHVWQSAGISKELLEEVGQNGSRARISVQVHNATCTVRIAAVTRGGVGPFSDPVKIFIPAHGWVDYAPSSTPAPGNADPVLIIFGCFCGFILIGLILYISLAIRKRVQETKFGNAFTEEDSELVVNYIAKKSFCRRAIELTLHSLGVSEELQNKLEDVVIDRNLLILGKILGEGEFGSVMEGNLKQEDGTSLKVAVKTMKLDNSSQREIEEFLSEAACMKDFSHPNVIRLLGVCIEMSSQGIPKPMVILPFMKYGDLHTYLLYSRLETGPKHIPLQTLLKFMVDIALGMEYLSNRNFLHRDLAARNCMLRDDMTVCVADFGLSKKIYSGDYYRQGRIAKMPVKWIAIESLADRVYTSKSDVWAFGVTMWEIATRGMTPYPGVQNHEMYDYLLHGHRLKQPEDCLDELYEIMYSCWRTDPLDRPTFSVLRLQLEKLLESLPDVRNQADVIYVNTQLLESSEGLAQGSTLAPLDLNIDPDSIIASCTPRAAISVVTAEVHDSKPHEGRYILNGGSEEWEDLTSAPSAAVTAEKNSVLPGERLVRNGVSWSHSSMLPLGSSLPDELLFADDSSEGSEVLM
# Assay Explanation: phosphorylation enrichment, bacterial display (enrichment ratio); higher = better substrate or ligand; peptides without Tyr show the background
# binarize phosphorylation enrichment: threshold 0.4 inclusive, high side Y, low side N

VQDPAYLRDIN [OPRK1_Y369_D374N]
N

Now let's try a different one.
Inquiry: hey, is phosphorylation enrichment for this one >= 0.4? IIEDPYYGNDS [ACP1_Y132]
Reply text: Y

====

# Tested on: c-Abl (mouse)
# Assay Explanation: phosphorylation enrichment, bacterial display (enrichment ratio); higher = better substrate or ligand; peptides without Tyr show the background
Each entry below carries its reported phosphorylation enrichment.
API note: the answer field is a bare number with no unit suffix.

Previously resolved entries follow.
GRSTFYWPRPR [GAGE12J_Y10_YF]
0.573
MSSHHYDYKKY [ZNF445_Y428]
0.438
KKDGPYDVVVL [PARK7_Y67_E64D]
0.629
IDAICYYRMEN [NPHS2_Y194]
0.927
VFFDLYGGEKF [PTPN11_Y66_D61V_YF]
0.914
VFDHIYTTQSD [RET_Y928_L923V]
0.44
VMLENYSNLLS [ZFP69_Y109_V113L]
0.595
NQLNDYIFSFD [RARS1_Y516_R512Q]
0.733

Inquiry: What value of measured phosphorylation enrichment is listed for EKAEVYRSENE [RIOK2_Y348_G349R] ?
Reply text: 0.77

Inquiry: Param item: LRTAVHHEILI [CREBBP_Y1450_Y1450H]
Reply text: 1.94

Inquiry: Item: ILGRYYERGSI [PAX5_Y73_T75R]
Reply text: 0.519

Inquiry: Cool, now NDQANYSLNTD [ADA_Y290]
Reply text: 0.814

Inquiry: # iterate: HPFHVYSQPGM [BAG3_Y114_P115S]
Reply text: 0.847

Inquiry: Query KWRGQYDVAIK [BTK_Y425] next
Reply text: 0.802

====

# Measured Target: Hck (UniProt P08631)
# Sequence (P08631 whole entry, looked up): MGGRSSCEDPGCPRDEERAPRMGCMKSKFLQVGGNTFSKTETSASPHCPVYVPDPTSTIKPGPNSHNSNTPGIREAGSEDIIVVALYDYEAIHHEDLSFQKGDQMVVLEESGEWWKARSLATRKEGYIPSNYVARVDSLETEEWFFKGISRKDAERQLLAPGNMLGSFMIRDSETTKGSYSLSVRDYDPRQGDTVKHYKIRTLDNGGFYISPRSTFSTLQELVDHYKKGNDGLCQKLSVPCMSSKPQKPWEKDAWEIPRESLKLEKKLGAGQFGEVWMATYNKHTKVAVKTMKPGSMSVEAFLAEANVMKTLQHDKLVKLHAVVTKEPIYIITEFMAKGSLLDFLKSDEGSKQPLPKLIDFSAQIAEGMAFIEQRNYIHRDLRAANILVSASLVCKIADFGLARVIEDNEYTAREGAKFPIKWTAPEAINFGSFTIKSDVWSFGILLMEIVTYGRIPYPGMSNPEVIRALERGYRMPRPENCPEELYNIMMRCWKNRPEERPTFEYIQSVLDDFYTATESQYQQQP
# Assay Explanation: phosphorylation enrichment, bacterial display (enrichment ratio); higher = better substrate or ligand; peptides without Tyr show the background
Hi, to clarify the labels: yes (1) covers phosphorylation enrichment from 0.6 upward, no (0) covers anything below 0.6.

RLKAKYAAATG [GLI3_Y933]
no (0)
VFDHIYTTQSD [RET_Y928_L923V]
yes (1)
LIDSSYLTPTA [GREB1L_Y1063_R1066P]
yes (1)
IINENYDFLKV [NUP98_Y1664_G1669V_YF]
yes (1)

Inquiry: Check the entry LSIDRYHAIVY [NPSR1_Y147] : does phosphorylation enrichment equal or exceed 0.6?
Reply text: no (0)

Inquiry: Further, for FMRGMYFRMTD [PLA2G6_Y541_K545T_YF] ?
Reply text: no (0)

Inquiry: What about ARVANYHRDGP [CAT_Y386_Q387H] ?
Reply text: no (0)

Where do these numbers come from? They come from the supplement of paper PMC10065799.
